System: NCI-H460 lung
EXPERIMENT_NOTES: NCI-60 one-dose screen, 48 h
STUDY_CONDITIONS: 10 µM unless noted
Compounds without any hit were thinned out: in the full panel of roughly 83,000, 20% have a hit. The source made the active and inactive calls. The calls were made as follows: active = growth percent below 10; inactive = the rest.
# valid calls are Y for active, N for inactive; nothing else

Completed entries (count: 3):
COc1ccc(NC2=C(Cl)C(=O)C(C)=C(C)C2=O)cc1    N
CC(=O)Nc1ccc(NC(=O)Nc2cccc(-c3nc(-c4ccc(NC(=O)c5cccnc5)cc4Cl)no3)c2)cc1C(F)(F)F    Y
O=S(=O)(Nc1cc(Cl)c(F)c(Cl)c1)c1ccc(-c2cnc(C3CC3)o2)cc1    N

Please let me know the test result on file for CC(C)=CCC[C@](C)(O)[C@H]1CC[C@]2(C)[C@@H]1CC[C@@H]1[C@@]3(C)CCC(NC(=O)c4ccccc4C(=O)O)C(C)(C)[C@@H]3CC[C@]12C (stereo not given in full) .
N

Please let me know the test result on file for CC1(C)CC[C@]2(C(=O)O)CC[C@]3(C)C(=CCC4[C@@]5(C)C[C@@H](O)[C@@H]6OC(c7ccccc7O)OC[C@@]6(C)C5CC[C@]43C)C2C1 (stereo not given in full) .
N

Please let me know the test result on file for "O=C1CSC(=O)N1Cc1cc2ccccc2nc1Cl" .
N

---

Test system: IGROV1 ovarian
EXPERIMENT_NOTES: NCI-60 one-dose screen, 48 h (100 = growth as untreated, 0 = no growth, -100 = all killed)
STUDY_CONDITIONS: 10 µM unless noted
This is part of a sample that, as a whole, favours compounds with a hit. Of some 83,000 tested, about 20% had one in any assay.
Give growth for every item shown.
Answers are plain numbers, in %.

As a guide, the following entries are already answered.
C=CCn1c(SCC(=O)Nc2ccc(OC)cc2)nnc1-c1ccc(Cl)cc1    89.8
O=S(=O)(Nc1ccc(I)c(Cl)c1)c1ccc(-c2cnc(C3CC3)o2)cc1    36.3
C#CCOc1ccc(/C=N/Nc2nc(-c3cc4cc(Br)cc(Br)c4oc3=O)cs2)cc1    98.9
O=C1c2c(c3c4cccnc4[nH]c3c3ccc4ccccc4c23)C(=O)N1CCN1CCCCC1    42.8
O=C1CC2(CCOCC2)Oc2ncccc21    8.85

Field: growth. Fill in for each record below.
1. COc1ccc(N2C(=O)c3cc(OC)c(OC)cc3NC2SCc2ccccc2)cc1 (centres undefined)
2. NC(=S)N/N=C(/C=C/c1cn(-c2ccccc2)nc1-c1ccc(Cl)cc1)c1cc2ccccc2oc1=O
3. COc1cc(C(=O)c2cc(C(C)=O)c3c4ccccc4ccn23)cc(OC)c1OC
4. N/C(=N\OC(=O)CSc1nc2ccccc2s1)c1ccc2ccccc2c1
5. O=S(=O)(Nc1cc(Cl)cc(Cl)c1)c1ccc(-c2cnc(C3CC3)o2)cc1
6. CN(C)c1ccc(/C=N/Nc2nc(N/N=C/c3ccc(N(C)C)cc3)nc(N3CCOCC3)n2)cc1
7. CN(c1ccc(Cl)cc1)S(=O)(=O)c1ccc(-c2cnc(C3CC3)o2)cc1

102
36
52.6
97.3
40.7
94.6
28.8

Field: growth. Fill in for each record below.
1. Cn1cc(-c2nnc(N)nc2-c2cn(C)c3ccc(F)cc23)c2cc(F)ccc21
2. O=C(COc1ccc(C2SCC(=O)N2c2ccccc2)cc1)c1ccccc1 (centres undefined)
3. O=C(NCCCNc1cc(-c2cn(-c3ccccc3)nc2-c2cccc(O)c2)ccn1)Nc1ccc(F)cc1
4. CC(=O)Nc1cccc(-n2cnc3cc(-c4ccc(O)cc4)ccc32)c1
5. CC(=O)c1ccc(NC(=O)COc2ccc(C3SCC(=O)N3c3ccc(Br)cc3)cc2)cc1 (centres undefined)
6. O=c1c2c(O)cccc2oc2c3c(cc(O)c12)O[C@H]1OC=C[C@@H]31

101
96.4
19.2
41.1
89.7
77.4

Please look at CC1COc2c(N3CCN(C)CC3)c(F)cc3c(=O)c(C(=O)N/N=C/c4cc[nH]c4)cn1c23 (centres undefined) and tell me its recorded growth on IGROV1 ovarian.
26.6
